biological target: PI3Kα (Homo sapiens); construct: purchased Invitrogen PV4788; assay: PI3Kα activity inhibition (Kinase-Glo); assay type: biochemical; settings: Table 1, graded; read-out: PI3Kα IC50
Sequence (P42336 whole entry, species assumed): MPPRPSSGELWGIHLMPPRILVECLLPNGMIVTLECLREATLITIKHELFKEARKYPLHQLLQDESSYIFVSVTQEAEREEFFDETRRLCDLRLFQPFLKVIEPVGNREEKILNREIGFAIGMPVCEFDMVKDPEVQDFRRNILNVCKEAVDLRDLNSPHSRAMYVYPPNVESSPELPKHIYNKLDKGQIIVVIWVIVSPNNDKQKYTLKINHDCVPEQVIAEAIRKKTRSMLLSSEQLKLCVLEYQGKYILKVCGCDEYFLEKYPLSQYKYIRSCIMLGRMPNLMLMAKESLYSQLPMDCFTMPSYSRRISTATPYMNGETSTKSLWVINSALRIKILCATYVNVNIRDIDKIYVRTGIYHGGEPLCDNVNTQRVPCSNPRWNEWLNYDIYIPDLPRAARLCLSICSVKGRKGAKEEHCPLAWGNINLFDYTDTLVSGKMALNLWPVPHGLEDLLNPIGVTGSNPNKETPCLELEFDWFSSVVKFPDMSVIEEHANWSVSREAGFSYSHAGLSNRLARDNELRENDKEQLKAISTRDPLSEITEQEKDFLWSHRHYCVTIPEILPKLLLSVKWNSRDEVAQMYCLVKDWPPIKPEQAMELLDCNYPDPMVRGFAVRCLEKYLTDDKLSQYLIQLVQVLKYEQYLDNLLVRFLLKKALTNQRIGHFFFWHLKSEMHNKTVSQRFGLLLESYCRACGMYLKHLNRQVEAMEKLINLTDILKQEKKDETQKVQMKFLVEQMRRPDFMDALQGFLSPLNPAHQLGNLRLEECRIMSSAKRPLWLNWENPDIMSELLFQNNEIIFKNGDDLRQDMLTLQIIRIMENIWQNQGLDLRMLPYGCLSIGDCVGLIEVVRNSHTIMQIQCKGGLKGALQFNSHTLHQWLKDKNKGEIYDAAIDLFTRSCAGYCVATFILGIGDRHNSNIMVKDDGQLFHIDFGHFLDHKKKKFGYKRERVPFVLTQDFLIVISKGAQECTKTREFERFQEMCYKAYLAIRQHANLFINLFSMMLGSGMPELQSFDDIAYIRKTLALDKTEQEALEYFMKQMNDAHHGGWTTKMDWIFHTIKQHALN
Sequence (P27986 whole entry partner, species assumed): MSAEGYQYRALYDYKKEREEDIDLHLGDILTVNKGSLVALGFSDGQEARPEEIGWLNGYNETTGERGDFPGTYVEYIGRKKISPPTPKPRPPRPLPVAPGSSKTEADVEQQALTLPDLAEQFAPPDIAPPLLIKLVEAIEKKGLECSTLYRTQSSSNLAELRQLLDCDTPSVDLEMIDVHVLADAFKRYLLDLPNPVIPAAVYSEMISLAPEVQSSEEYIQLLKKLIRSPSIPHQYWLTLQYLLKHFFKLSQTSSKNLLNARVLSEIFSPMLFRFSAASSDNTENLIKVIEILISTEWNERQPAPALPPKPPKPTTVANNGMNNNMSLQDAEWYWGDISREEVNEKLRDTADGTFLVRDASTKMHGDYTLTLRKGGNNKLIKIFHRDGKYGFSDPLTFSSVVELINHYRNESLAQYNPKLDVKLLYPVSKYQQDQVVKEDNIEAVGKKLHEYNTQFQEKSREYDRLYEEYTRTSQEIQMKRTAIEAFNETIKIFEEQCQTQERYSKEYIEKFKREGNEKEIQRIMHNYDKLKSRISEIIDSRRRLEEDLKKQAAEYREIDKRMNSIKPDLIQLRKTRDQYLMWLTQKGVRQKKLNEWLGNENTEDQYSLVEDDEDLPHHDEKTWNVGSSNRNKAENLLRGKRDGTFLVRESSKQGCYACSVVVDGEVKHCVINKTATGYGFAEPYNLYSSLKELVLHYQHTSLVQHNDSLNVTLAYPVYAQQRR
Answer each item with its documented IC50.

# compound, IC50
measured = [
    ("CN(Cc1nc2c(N3CCOCC3)nc(-c3ccc(S(=O)(=O)NCCCCl)cc3)nc2n1C)c1ncc(C(=O)NO)cn1 [CLJ-58]", "> 10 µM"),
    ("CN(Cc1nc2c(N3CCOCC3)nc(-c3ccc(CN4CCOCC4)cc3)nc2n1C)c1ncc(C(=O)NO)cn1 [CLJ-67]", "> 10 µM"),
    ("CN(Cc1nc2c(N3CCOCC3)nc(-c3ccncc3)nc2n1C)c1ncc(C(=O)NO)cn1 [CLJ-8]", "1 to 10 µM"),
    ("CN(Cc1nc2c(N3CCOCC3)nc(-c3cccc(CO)c3)nc2n1C)c1ncc(C(=O)NO)cn1 [CLJ-40]", "> 10 µM"),
    ("CCNc1ccc(-c2nc(N3CCOCC3)c3nc(CN(C)c4ncc(C(=O)NO)cn4)n(C)c3n2)cc1 [CLJ-48]", "> 10 µM"),
    ("CCCN(Cc1nc2c(N3CCOCC3)nc(-c3ccc(OC)nc3)nc2n1C)c1ncc(C(=O)NO)cn1 [CLJ-6]", "> 10 µM"),
    ("COc1ccc(-c2nc(N3CCOCC3)c3nc(CN(C)c4ncc(C(=O)NO)cn4)n(C)c3n2)cn1 [CLJ-1]", "1 to 10 µM"),
]

Hey, PI3Kα (Homo sapiens) data for CCN(Cc1nc2c(N3CCOCC3)nc(-c3ccc(OC)nc3)nc2n1C)c1ncc(C(=O)NO)cn1 [CLJ-5] : IC50 came out at < 0.1 µM

---

Task for the reader: assign each of the following compounds its reported IC50.
target: PI3Kβ (Homo sapiens, UniProt P42338); construct: purchased Millipore 14-603-K; assay: PI3Kβ activity inhibition (ADP-Glo); type: biochemical; conditions: Table 1, graded
Sequence (P42338 whole entry, species assumed, one chain of several): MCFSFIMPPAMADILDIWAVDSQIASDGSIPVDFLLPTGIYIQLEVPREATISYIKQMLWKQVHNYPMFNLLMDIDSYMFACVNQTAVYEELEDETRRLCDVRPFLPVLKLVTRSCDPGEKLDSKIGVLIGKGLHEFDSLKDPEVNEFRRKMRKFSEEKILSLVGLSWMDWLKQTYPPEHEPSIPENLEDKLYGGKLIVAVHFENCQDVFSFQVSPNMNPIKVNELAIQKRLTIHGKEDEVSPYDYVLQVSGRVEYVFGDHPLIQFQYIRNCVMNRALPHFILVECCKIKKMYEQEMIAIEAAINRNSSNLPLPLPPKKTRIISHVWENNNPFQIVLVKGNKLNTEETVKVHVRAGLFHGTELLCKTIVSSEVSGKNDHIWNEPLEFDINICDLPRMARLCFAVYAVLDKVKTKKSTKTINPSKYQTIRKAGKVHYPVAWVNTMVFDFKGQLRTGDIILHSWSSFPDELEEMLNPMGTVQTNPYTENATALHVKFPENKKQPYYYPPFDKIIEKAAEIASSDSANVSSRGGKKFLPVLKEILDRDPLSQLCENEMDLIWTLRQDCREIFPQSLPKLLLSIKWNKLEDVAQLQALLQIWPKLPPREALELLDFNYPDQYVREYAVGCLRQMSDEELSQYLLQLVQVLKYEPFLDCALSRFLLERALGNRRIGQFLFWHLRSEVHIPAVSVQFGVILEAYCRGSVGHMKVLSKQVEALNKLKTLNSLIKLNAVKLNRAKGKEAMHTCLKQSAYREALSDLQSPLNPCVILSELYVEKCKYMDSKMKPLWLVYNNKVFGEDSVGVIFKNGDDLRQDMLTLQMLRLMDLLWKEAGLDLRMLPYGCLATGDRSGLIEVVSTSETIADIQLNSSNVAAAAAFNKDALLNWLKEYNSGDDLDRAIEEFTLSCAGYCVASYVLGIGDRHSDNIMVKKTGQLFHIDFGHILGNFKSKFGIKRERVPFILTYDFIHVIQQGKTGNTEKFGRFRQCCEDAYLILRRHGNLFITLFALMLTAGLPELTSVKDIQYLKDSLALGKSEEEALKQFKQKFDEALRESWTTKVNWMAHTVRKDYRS

A selection of reference data follows.
# smiles.entry, IC50
data = [
    ("CCN(Cc1nc2c(N3CCOCC3)nc(-c3ccc(OC)nc3)nc2n1C)c1ncc(C(=O)NO)cn1", "100 to 1000 nM"),
    ("CN(Cc1nc2c(N3CCOCC3)nc(-c3cnc4ccccc4c3)nc2n1C)c1ncc(C(=O)NO)cn1", "> 10000 nM"),
    ("CN(Cc1nc2c(N3CCOCC3)nc(-c3cnc(N)nc3)nc2n1C)c1ncc(C(=O)NO)cn1", "100 to 1000 nM"),
    ("CCCN(Cc1nc2c(N3CCOCC3)nc(-c3ccc(OC)nc3)nc2n1C)c1ncc(C(=O)NO)cn1", "> 10000 nM"),
    ("CN(Cc1nc2c(N3CCOCC3)nc(-c3ccc4[nH]ncc4c3)nc2n1C)c1ncc(C(=O)NO)cn1", "> 10000 nM"),
    ("Cc1ncc(-c2nc(N3CCOCC3)c3nc(CN(C)c4ncc(C(=O)NO)cn4)n(C)c3n2)cn1", "100 to 1000 nM"),
]

Look up IC50 for the entries below, preserving their order.
1. CNc1ncc(-c2nc(N3CCOCC3)c3nc(CN(C)c4ncc(C(=O)NO)cn4)n(C)c3n2)cn1
2. COc1ccc(-c2nc(N3CCOCC3)c3nc(CN(C)c4ncc(C(=O)NO)cn4)n(C)c3n2)cn1

1: 100 to 1000 nM; 2: 1000 to 10000 nM
